Sourced from PubChem BioAssay (NCI)

Tested on: HT29 colon
ASSAY_OVERVIEW: NCI tumour cell line growth inhibition, 48 h
OUTCOME_MEASURE: TGI

Query block: TGI for S=C(Nc1ccc(Cl)cc1)Nc1ccc(-c2nc3ccccc3[nH]2)cc1 ?
Result block: 14.9 µM

Query block: # repeat for COc1ccc(CN(CCc2c[nH]c3ccccc23)Cc2ccc(OC)cc2)cc1
Result block: 6.41 µM

Query block: # repeat for CC1(C)OCC(C2OC(N3O[C@H](CI)C[C@@H]3c3ccccc3)C3OC(C)(C)OC23)O1 (stereo partly specified)
Result block: > 100 µM

Query block: # repeat for COC12C=CC(CC1)C1C(=O)c3c(C)c(C)n(C)c3C(=O)C12 (stereo unspecified)
Result block: > 100 µM

Query block: # repeat for CC1(O)/C(=N/O)CC2CC1C2(C)C (stereo unspecified)
Result block: > 100 µM

Query block: # repeat for CC1=C(OC2OC(CO)C(O)C(O)C2O)C(=O)C[C@H]2C1=CC[C@@H]1[C@@]2(C)C(=O)C[C@]2(C)[C@@H]([C@@](C)(O)C(=O)CCC(C)(C)O)[C@H](O)C[C@@]12C (stereo partly specified)
Result block: > 100 µM

Query block: # repeat for COC1OC(CO)C(O)C(OC(=O)c2cc(O)c(O)c(O)c2)C1OC(=O)c1cc(O)c(O)c(O)c1 (stereo unspecified)
Result block: > 100 µM

Query block: # repeat for COc1c(O)ccc2c1CN1CCc3cc4c(cc3C1C2)OCO4 (stereo unspecified)
Result block: > 100 µM

Query block: # repeat for O=C(c1ccncc1)n1nc(-c2ccccc2)c(N=Nc2ccc([N+](=O)[O-])cc2)c1-c1ccccc1
Result block: > 100 µM

Query block: # repeat for COC[n+]1cc2cc(OC)c(OC)cc2c2ccc3cc(OC)c(OC)cc3c21
Result block: > 100 µM

Query block: # repeat for Cc1cc(C)nc(Nc2nc3ccc([N+](=O)[O-])cc3[nH]2)n1
Result block: > 100 µM

Query block: # repeat for CC(C)/C=N\n1c(N)c(C#N)c(C#N)c1C(C)C
Result block: > 100 µM

Query block: # repeat for CC(C(=O)Oc1ccc2ccccc2c1-c1c(O)ccc2ccccc12)c1ccccc1 (stereo unspecified)
Result block: 28.8 µM

Query block: # repeat for C[C@H]1CCC/C=C/[C@@H]2C[C@H](O)C[C@H]2[C@H](O)[C@@H](S(=O)CCN(C)C)CC(=O)O1 (stereo partly specified)
Result block: 0.293 µM

Query block: # repeat for CCOC(=O)C1C(=O)c2ccccc2CN1Cc1ccccc1 (stereo unspecified)
Result block: > 100 µM

Query block: # repeat for COc1ccc(OC)c2nc3c(C(=O)NCCN(C)C)cccc3nc12
Result block: > 44.3 µM

Query block: # repeat for N=C(N)CCCCCCCCC(=N)N
Result block: > 100 µM

Query block: # repeat for Nc1c(-c2nc3ccccc3[nH]2)sc(=S)n1-c1ccccc1
Result block: > 100 µM

Query block: # repeat for CC(=O)Nc1ccc2c(C)c3c4ccccc4n(C)c3nc2n1
Result block: > 100 µM

Query block: # repeat for C[N+]1(C)CCC(C#N)(c2ccccc2)CC1
Result block: > 100 µM

Query block: # repeat for C[C@]12CC(c3ccccc3O1)C(C(=O)NC13CC4CC(CC(C4)C1)C3)C(=O)N2 (stereo partly specified)
Result block: 30.8 µM
